test system: E34 (patient-derived glioblastoma stem cells of proneural subtype); assay: phenotypic distance (Euclidean, principal components) from DMSO controls (arbitrary units); higher = stronger morphological change; settings: 1000 nM; exposure time: 72 h
Reported phenotypic distance values follow for various molecules

# annotated cases, reported phenotypic distance shown
COc1cc2c(c(OC)c1OC)-c1ccc(OC)c(=O)cc1[C@@H](NC(C)=O)CC2
7.61
CCCCCCNC(=O)n1cc(F)c(=O)[nH]c1=O
0.627
CN1C(=O)OC(C)(C)C1=O
0.565

Shifting focus to the molecule that follows.
For the molecule shown here, "CCOC(=O)C1=C(C)NC(C)=C(C(=O)OCC)C1c1c(F)c(F)c(F)c(F)c1F" , give the reported phenotypic distance. 0.698

====

system: E34; test: surviving fraction (nuclei count normalised to DMSO); higher = more cells surviving (less toxic); details: 37 nM; exposure time: 72 h
Where a name gives a salt, the structure may show the parent alone.
# surviving fraction per entry
Field format: numeric only.

Observe how each entry below is paired with its result.
CC[C@H]1CN2CCc3cc(OC)c(OC)cc3[C@@H]2C[C@@H]1C[C@H]1NCCc2cc(OC)c(OC)cc21 [Emetine dihydrochloride hydrate]
0.818
CCCSc1ccc2[nH]c(NC(=O)OC)nc2c1
0.937
CC1CNc2c(cccc2S(=O)(=O)N[C@@H](CCCNC(=N)N)C(=O)N2CC[C@@H](C)C[C@@H]2C(=O)O)C1 (stereo partly drawn)
0.976
CN[C@@H]1[C@@H](O)[C@@H](O[C@@H]2[C@@H](O)[C@H](O[C@H]3OC(CN)=CC[C@H]3N)[C@@H](N)C[C@H]2N)OC[C@]1(C)O [Sisomicin sulfate]
0.811
OCCN1CCN(CCCN2c3ccccc3Sc3ccc(C(F)(F)F)cc32)CC1 [Fluphenazine dihydrochloride]
0.911

Consider the compound shown here: "COc1cc(/C=C/C(=O)N2CCC=CC2=O)cc(OC)c1OC" What is its recorded surviving fraction? 1.11

Would you kindly share the measured surviving fraction for "CN1C(=O)OC(C)(C)C1=O" ? 1.04

Consider the compound NC(=O)c1ccccc1 [Benzamide] and give its measured surviving fraction. 0.993

====

system: E21 (patient-derived glioblastoma stem cells of mesenchymal subtype); assay: phenotypic distance (Euclidean, principal components) from DMSO controls (arbitrary units); higher = stronger morphological change; conditions: 37 nM; exposure time: 72 h
Where a name gives a salt, the structure may show the parent alone.
Reported phenotypic distance maps to class as: L: < 0.7; M: ≥ 0.7 and < 1; H: ≥ 1

Categorize the following entry: "O=c1[nH]c(=O)n([C@H]2C[C@H](O)[C@@H](CO)O2)cc1I" H

Exercise: read the entry CNCCc1ccccn1 [Betahistine mesylate] and state which class it falls under. M

# bin lookup: classify CCCCC1C(=O)N(c2ccccc2)N(c2ccc(O)cc2)C1=O (configuration not stated) by its phenotypic distance L

Using the reported phenotypic distance, which band applies to CC1(C)S[C@@H]2[C@H](NC(=O)Cc3ccccc3)C(=O)N2[C@H]1C(=O)O [Benzylpenicillin sodium] ? M

Form: Item = "OC[C@H]1O[C@@H](Oc2ccc(O)cc2)[C@H](O)[C@@H](O)[C@@H]1O" ; Class = ? M

Returns: class label. Input: "O=C(Oc1cccc2cccnc12)c1ccccc1" H

Class? Entry: "Nc1ncnc2c1c(-c1ccc(Oc3ccccc3)cc1)cn2C1CCCC1" M

Categorize the following entry: "CCn1c(-c2nonc2N)nc2cnc(Oc3cccc(NC(=O)c4ccc(OCCN5CCOCC5)cc4)c3)cc21" H

Category of CC1=C(/C=C/C(C)=C/C=C/C(C)=C/C(=O)Nc2ccc(O)cc2)C(C)(C)CCC1 [Retinoic acid p-hydroxyanilide] , please. M
